B1: RHOBTB1 (parent)
chain: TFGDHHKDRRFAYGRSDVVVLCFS

# Variants of: B1
# Measurement notes: protein stability index of a GFP-peptide fusion (GPS, HEK-293T) (PSI 1-6); higher = more stable;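 further: lentivirally expressed fusions sorted by FACS into six bins by GFP to DsRed ratio, PSI derived from sequencing read proportions per bin multiplied by bin number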
# Condition parameters: c terminus: a fixed tail appended
Measurement label: protein stability index
API note: the answer field is a bare number with no unit suffix.

Here's what some known entries look like.
Q. Data request, read-out protein stability index, for A12D
A. 2.58

Q. Data request, read-out protein stability index, for A12Y
A. 1.9

Q. Data request, read-out protein stability index, for S24G
A. 2.54

Pending variant:
Q. Data request, read-out protein stability index, for R10E
A. 1.47
